- tgt: FUS wild-type (UniProt P35637 1-526)
- Sequence (P35637 whole entry): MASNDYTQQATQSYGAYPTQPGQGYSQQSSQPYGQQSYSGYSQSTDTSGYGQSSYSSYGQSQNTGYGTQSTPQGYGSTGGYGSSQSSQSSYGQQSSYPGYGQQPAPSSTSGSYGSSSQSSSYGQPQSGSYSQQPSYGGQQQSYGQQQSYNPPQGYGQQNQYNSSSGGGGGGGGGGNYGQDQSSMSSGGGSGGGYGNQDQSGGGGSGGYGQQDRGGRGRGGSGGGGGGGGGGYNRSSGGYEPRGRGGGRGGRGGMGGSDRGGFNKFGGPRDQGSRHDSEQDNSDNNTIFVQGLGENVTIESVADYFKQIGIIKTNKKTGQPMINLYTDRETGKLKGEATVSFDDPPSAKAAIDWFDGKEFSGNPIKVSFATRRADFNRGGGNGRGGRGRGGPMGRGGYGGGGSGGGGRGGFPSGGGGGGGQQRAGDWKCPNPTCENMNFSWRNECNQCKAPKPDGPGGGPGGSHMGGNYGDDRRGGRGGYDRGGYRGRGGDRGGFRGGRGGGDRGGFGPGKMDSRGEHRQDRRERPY
- procedureDetails: fluorescence anisotropy
assayReadout: Kd

## Input Entry UUUUUUUUUUUUUUUUUUUUUUUUUUUUUUUUUUUUUUUU (ssRNA) [U40 RNA] : reported Kd = ?
## Output ~5 nM

Values compiled from paper PMC9330637.
